- Test protocol: qHTS of pediatric cancer cell lines to identify multiple opportunities for drug repurposing: Primary screen for SK-N-MC cells (AID 1347093)
- Conditions: SK-N-MC viability, CellTiter-Glo luminescence, 48 h; series mostly up to 46 µM
Results filed as inconclusive are left out. The source made the active and inactive calls. The call rests on the fitted dose curve; in most records, active means well fitted cell-killing curve with a large enough effect; inconclusive means small, poorly fitted or top-dose-only effect; inactive means no such curve, though single readings can be large or run the other way.
In this exercise, the only acceptable responses are 1.0 (active), 0.0 (inactive)

Please review the entries below; each comes with its answer.
# Compound, Class assignment
records = [
    ("CC(O)(CS(=O)(=O)c1ccc(F)cc1)C(=O)Nc1ccc(C#N)c(C(F)(F)F)c1 (stereo unspecified)", 1.0),
    ("Oc1ccccc1-c1ccccc1", 0.0),
    ("CCCC(C)(COC(N)=O)COC(=O)NC(C)C (stereo unspecified)", 0.0),
    ("CC1=C2C[C@@H]3[C@@H](CC=C4C[C@@H](O)CC[C@@]43C)[C@@H]2CC[C@]12O[C@H]1C[C@H](C)CN[C@H]1[C@H]2C", 0.0),
    ("CCCN1CCC[C@@H]2Cc3[nH]ncc3C[C@H]21", 0.0),
]

Next, consider the following compound.
Query :: Please state the recorded outcome for this compound: COC1(CS(=O)c2ccccc2)CCN(CCc2c[nH]c3ccc(F)cc23)CC1 (stereo unspecified)
Result :: 0.0
